B1: RHOBTB2 (parent)
chain: HHHHGRDFLLRAASFDVCESVDEA

variants of: B1; assay: protein stability index of a GFP-peptide fusion (GPS, HEK-293T) (PSI 1-6); higher = more stable; conditions: c terminus: a fixed tail appended;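 note: lentivirally expressed fusions sorted by FACS into six bins by GFP to DsRed ratio, PSI derived from sequencing read proportions per bin multiplied by bin number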
endpoint: protein stability index

mutantCode | val
S14K | 3.17
L9G | 4.6
G5S | 4.61
F8D | 5.15
H2Y | 4.16
R11Q | 3.94
H3S | 3.83
A12S | 3.29
L9S | 4.03
H1R | 3.92
F8H | 5.06

Source of measurements: the supplement of paper PMC10567573
